All figures here come from patent US20080233127A1.

biological target: PI3 Kinase; assay: PI3K fluorescence polarization assay; assay type: biochemical; conditions: 25 μM ATP, diC8-PI(4,5)P2 substrate, 1 hour at 25° C.; read-out: PI3 Kinase Median IC50
pIC50: −log10 of the molar value.
Quantity Measured: pIC50

>  <Molecule>
Oc1cccc(-c2nc(N3CCCCC3)c3nc[nH]c3n2)c1

>  <Quantity Measured>
pIC50

>  <Value Reported>
5.37

$$$$
>  <Molecule>
OCc1ccc(-c2nc(N3CCOCC3)c3nc[nH]c3n2)cc1

>  <Quantity Measured>
pIC50

>  <Value Reported>
5.43

$$$$
>  <Molecule>
OCc1cccc(-c2nc(N3CCOCC3)c3ncn(C4CCN(Cc5cccc(F)c5)CC4)c3n2)c1

>  <Quantity Measured>
pIC50

>  <Value Reported>
7.03

$$$$
>  <Molecule>
Oc1cccc(-c2nc(N3CCOCC3)c3ncn(C4CCN(Cc5ccc(Cl)nc5)CC4)c3n2)c1

>  <Quantity Measured>
pIC50

>  <Value Reported>
7.43

$$$$
>  <Molecule>
OCc1cccc(-c2nc(N3CCOCC3)c3ncn(C4CCN(Cc5ccc[nH]5)CC4)c3n2)c1

>  <Quantity Measured>
pIC50

>  <Value Reported>
7.43

$$$$
>  <Molecule>
c1cc2cc(-c3nc(N4CCOCC4)c4nc[nH]c4n3)ccc2[nH]1

>  <Quantity Measured>
pIC50

>  <Value Reported>
5.56

$$$$

P. Oc1ccc(-c2nc(N3CCOCC3)c3nc[nH]c3n2)cc1
Q. OCc1cccc(-c2nc(N3CCOCC3)c3ncn(C4CCN(Cc5cnc6n5CCOC6)CC4)c3n2)c1
Of P and Q , which shows the smaller pIC50 value? Give the chosen item's label as your response. P

====

molecular target: human TOR (Homo sapiens); construct: FLAG; assay: mTOR enzyme assay (DELFIA format, purified FLAG-TOR, His6-S6K substrate); conditions: 100 μM ATP, 1.25 μM His6-S6K, 2 hours at room temperature; read-out: TOR Kinase Median IC50
Quantity Measured: IC50 (nM)

Recorded IC50, per entry:
>  <Molecule>
Oc1cncc(-c2nc(N3CCOCC3)c3ncn(C4CCN(Cc5ccc[nH]5)CC4)c3n2)c1

>  <Quantity Measured>
IC50

>  <Value Reported>
940

$$$$
>  <Molecule>
OCc1cccc(-c2nc(N3CCOCC3)c3ncn(CCN4CCCCC4)c3n2)c1

>  <Quantity Measured>
IC50

>  <Value Reported>
13000

$$$$
>  <Molecule>
Oc1cccc(-c2nc(N3CCOCC3)c3nc[nH]c3n2)c1

>  <Quantity Measured>
IC50

>  <Value Reported>
2120

$$$$
>  <Molecule>
Oc1cncc(-c2nc(N3CCOCC3)c3ncn(C4CCN(Cc5ccc(F)nc5)CC4)c3n2)c1 [Compound 41]

>  <Quantity Measured>
IC50

>  <Value Reported>
570

$$$$
>  <Molecule>
COc1ccc(CN2CCC(n3cnc4c(N5CCOCC5)nc(-c5cccc(O)c5)nc43)CC2)cn1

>  <Quantity Measured>
IC50

>  <Value Reported>
51

$$$$
>  <Molecule>
Nc1ccc(-c2nc(N3CCOCC3)c3ncn(C4CCN(Cc5ccccc5)CC4)c3n2)cn1

>  <Quantity Measured>
IC50

>  <Value Reported>
120

$$$$
>  <Molecule>
OCc1cccc(-c2nc(N3CCOCC3)c3ncn(C4CCNCC4)c3n2)c1

>  <Quantity Measured>
IC50

>  <Value Reported>
7200

$$$$
>  <Molecule>
Oc1cccc(-c2nc(N3CCOCC3)c3ncn(C4CCN(Cc5ccccc5)CC4)c3n2)c1

>  <Quantity Measured>
IC50

>  <Value Reported>
140

$$$$

A. Oc1cccc(-c2nc(N3CCOCC3)c3ncn(C4CCN(Cc5ccc(Cl)nc5)CC4)c3n2)c1
B. Oc1cncc(-c2nc(N3CCOCC3)c3ncn(C4CCN(Cc5ccccc5)CC4)c3n2)c1
C. c1nc2c(N3CCOCC3)nc(-c3ccc4c(c3)OCO4)nc2[nH]1
Please order the records by their reported IC50, lowest number first. Use the labels to give the ranking in the order requested. A, B, C
(A: 200 nM, B: 550 nM, C: 8900 nM)

====

biological target: PI3 Kinase; assay: PI3K fluorescence polarization assay; settings: 25 μM ATP, diC8-PI(4,5)P2 substrate, 1 hour at 25° C.; read-out: PI3 Kinase Median IC50
pIC50: −log10 of the molar value.
Quantity Measured: pIC50

Recorded pIC50, per entry:
>  <Compound>
c1csc(-c2nc(N3CCOCC3)c3nc[nH]c3n2)c1

>  <Quantity Measured>
pIC50

>  <Value Reported>
6.14

$$$$
>  <Compound>
Oc1cncc(-c2nc(N3CCOCC3)c3nc[nH]c3n2)c1

>  <Quantity Measured>
pIC50

>  <Value Reported>
7.96

$$$$
>  <Compound>
CNC(=O)Nc1ccc(-c2nc(N3CCOCC3)c3ncn(C4CCN(Cc5cccnc5)CC4)c3n2)cc1

>  <Quantity Measured>
pIC50

>  <Value Reported>
6.47

$$$$
>  <Compound>
CCNC(=O)Nc1ccc(-c2nc(N3CCOCC3)c3ncn(C4CCN(Cc5cccnc5)CC4)c3n2)cc1

>  <Quantity Measured>
pIC50

>  <Value Reported>
5.87

$$$$

I. O=[N+]([O-])c1cccc(-c2nc(N3CCOCC3)c3nc[nH]c3n2)c1
II. Oc1cncc(-c2nc(N3CCOCC3)c3ncn(C4CCN(Cc5ccccc5)CC4)c3n2)c1
III. OCc1cccc(-c2nc(N3CCOCC3)c3ncn(C4CCN(Cc5ccc(F)c(F)c5)CC4)c3n2)c1
IV. CS(=O)(=O)c1ccc(-c2nc(N3CCOCC3)c3nc[nH]c3n2)cc1
Please order the records by their reported pIC50, lowest number first. Use the labels to give the ranking in the order requested. I, IV, II, III

P. OCc1cccc(-c2nc(N3CCOCC3)c3ncn(C4CCNCC4)c3n2)c1
Q. CC(C)c1cccc(-c2nc(N3CCOCC3)c3nc[nH]c3n2)c1
Hi, I'm comparing P with Q and wondering which one has the bigger number for pIC50. Any idea? Give the chosen item's label as your response. P

====

target: human TOR (Homo sapiens, UniProt P42345); construct: FLAG; experiment: mTOR enzyme assay (DELFIA format, purified FLAG-TOR, His6-S6K substrate); conditions: 100 μM ATP, 1.25 μM His6-S6K, 2 hours at room temperature; read-out: TOR Kinase Median IC50
Quantity Measured: IC50 (µM)

Recorded IC50, per entry:
>  <Compound>
OCc1cccc(-c2nc(N3CCOCC3)c3ncn(C4CCN(Cc5ccc(F)cc5)CC4)c3n2)c1 [Compound 46]

>  <Value Reported>
1.7

$$$$
>  <Compound>
Cc1ccc(CN2CCC(n3cnc4c(N5CCOCC5)nc(-c5cncc(O)c5)nc43)CC2)cc1 [Compound 40]

>  <Value Reported>
0.59

$$$$
>  <Compound>
Oc1cncc(-c2nc(N3CCOCC3)c3ncn(C4CCN(Cc5ccc(F)nc5)CC4)c3n2)c1 [Compound 88]

>  <Value Reported>
0.5

$$$$
>  <Compound>
CC(C)(C)OC(=O)N1CCC(n2cnc3c(N4CCOCC4)nc(-c4cccc(CO)c4)nc32)CC1 [Compound 59]

>  <Value Reported>
1.4

$$$$

a. OCc1cccc(-c2nc(N3CCOCC3)c3ncn(C4CCN(Cc5ncc[nH]5)CC4)c3n2)c1 [Compound 70]
b. OCc1cccc(-c2nc(N3CCOCC3)c3ncn(C4CCN(Cc5cccc(Br)n5)CC4)c3n2)c1 [Compound 71]
c. Oc1cncc(-c2nc(N3CCOCC3)c3ncn(C4CCN(Cc5ccc(Cl)cc5)CC4)c3n2)c1 [Compound 38]
d. Oc1cccc(-c2nc(N3CCOCC3)c3ncn(CCN4CCCCC4)c3n2)c1 [Compound 85]
Rank the 4 compounds: largest IC50 first, smallest last. Use the labels to give the ranking in the order requested. d, a, b, c

====

target: human TOR (Homo sapiens, UniProt P42345); construct: FLAG; assay: mTOR enzyme assay (DELFIA format, purified FLAG-TOR, His6-S6K substrate); settings: 100 μM ATP, 1.25 μM His6-S6K, 2 hours at room temperature; read-out: TOR Kinase Median IC50
pIC50: −log10 of the molar value.
Quantity Measured: pIC50

Recorded pIC50, per entry:
>  <Molecule>
Oc1cncc(-c2nc(N3CCOCC3)c3nc[nH]c3n2)c1 [Compound 43]

>  <pIC50>
6.21

$$$$
>  <Molecule>
Cc1ccc(CN2CCC(n3cnc4c(N5CCOCC5)nc(-c5cncc(O)c5)nc43)CC2)s1 [Compound 37]

>  <pIC50>
6.85

$$$$
>  <Molecule>
CN(C)c1ccc(CN2CCC(n3cnc4c(N5CCOCC5)nc(-c5cccc(O)c5)nc43)CC2)c2ccccc12 [Compound 83]

>  <pIC50>
6.44

$$$$

a. OCc1cccc(-c2nc(N3CCOCC3)c3ncn(C4CCN(Cc5cnc6n5CCOC6)CC4)c3n2)c1 [Compound 74]
b. CNC(=O)Nc1ccc(-c2nc(N3CCOCC3)c3ncn(C4CCN(Cc5cccnc5)CC4)c3n2)cc1 [Compound 89]
Of a and b , which shows the smaller pIC50 value? Give the chosen item's label as your response. a
(a: 5.70, b: 8.01)

P. OCc1cccc(-c2nc(N3CCOCC3)c3ncn(C4CCN(Cc5ccc[nH]5)CC4)c3n2)c1 [Compound 68]
Q. Oc1cccc(-c2nc(N3CCOCC3)c3ncn(C4CCN(Cc5cccnc5)CC4)c3n2)c1 [Compound 76]
Hi, I'm comparing P with Q and wondering which one has the bigger number for pIC50. Any idea? Give the chosen item's label as your response. Q
(Q: 6.77, P: 5.60)

1. COc1cncc(-c2nc(N3CCOCC3)c3nc[nH]c3n2)c1 [Compound 42]
2. Oc1cccc(-c2nc(N3CCOCC3)c3ncn(C4CCN(Cc5ccc(Br)nc5)CC4)c3n2)c1 [Compound 81]
3. Oc1ccc(-c2nc(N3CCOCC3)c3nc[nH]c3n2)cc1 [Compound 4, 4-(6-morpholin-4-yl-9H-purin-2-yl)phenol]
4. OCc1cccc(-c2nc(N3CCOCC3)c3ncn(C4CCN(Cc5c[nH]c6ccc(F)cc56)CC4)c3n2)c1 [Compound 73]
Please order the records by their reported pIC50, lowest number first. Use the labels to give the ranking in the order requested. 1, 4, 3, 2
(1: 5.52, 4: 5.89, 3: 6.35, 2: 6.92)
